The origin of these recorded values is ChEMBL document CHEMBL1146080.

Molecular target: UniProtKB P32238
Sequence (whole entry): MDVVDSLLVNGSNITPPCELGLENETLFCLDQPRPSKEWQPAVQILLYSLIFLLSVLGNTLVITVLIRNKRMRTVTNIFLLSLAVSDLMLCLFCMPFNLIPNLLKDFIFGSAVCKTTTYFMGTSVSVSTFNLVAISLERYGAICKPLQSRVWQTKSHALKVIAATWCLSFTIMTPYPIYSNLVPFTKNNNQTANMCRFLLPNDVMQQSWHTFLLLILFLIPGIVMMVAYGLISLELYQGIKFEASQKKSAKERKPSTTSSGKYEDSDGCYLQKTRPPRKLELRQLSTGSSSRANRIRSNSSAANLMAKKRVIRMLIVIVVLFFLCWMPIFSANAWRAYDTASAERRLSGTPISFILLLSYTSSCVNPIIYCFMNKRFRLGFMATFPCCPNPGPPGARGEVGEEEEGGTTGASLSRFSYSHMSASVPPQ
Assay: Inhibition of [3H]L-364718 binding to human recombinant CCK1 receptor expressed in PC3 cell line at 10 uM
Format: cell-based
Details: PC-3
quantity: inhibition (%)

Worked examples, 2 molecules total:
{"record.smiles": "CNc1cccc(NC(=O)CN2N=C(c3ccccn3)c3ccccc3N(CC(=O)C(C)(C)C)C2=O)c1", "inhibition, %": 22}
{"record.smiles": "CNc1cccc(NC(=O)CN2N=C(c3ccccc3)c3ccccc3N(CC(=O)C(C)(C)C)C2=O)c1", "inhibition, %": 21}

P: CN(C)c1cccc(NC(=O)CN2N=C(C3CCCCC3)c3ccccc3N(CC(=O)C(C)(C)C)C2=O)c1
Q: Cc1cccc(NC(=O)CN2N=C(C3CCCCC3)c3ccccc3N(CC(=O)C(C)(C)C)C2=O)c1
Look at P and Q . Which one has the lower recorded inhibition number? // return label of chosen record P
